Target: T1, Rb^P E492Q (human, UniProt P06400 380-788, E492Q)
T1 construct: also called variant 18
T1 sequence (looked up): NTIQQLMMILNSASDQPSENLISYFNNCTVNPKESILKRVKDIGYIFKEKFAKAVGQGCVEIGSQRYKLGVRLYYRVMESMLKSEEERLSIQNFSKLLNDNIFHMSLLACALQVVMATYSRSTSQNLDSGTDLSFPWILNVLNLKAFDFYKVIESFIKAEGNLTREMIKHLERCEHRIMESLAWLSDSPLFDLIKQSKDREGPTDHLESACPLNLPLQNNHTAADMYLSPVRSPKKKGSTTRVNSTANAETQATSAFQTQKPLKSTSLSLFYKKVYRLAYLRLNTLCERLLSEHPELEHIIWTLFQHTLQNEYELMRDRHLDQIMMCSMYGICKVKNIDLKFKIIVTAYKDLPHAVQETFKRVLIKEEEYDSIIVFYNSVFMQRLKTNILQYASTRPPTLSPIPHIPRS
Experiment: fluorescence polarisation; 37 °C, after the 25 °C reading ramped over 7 min to 37 °C and 2 min incubation; unlabeled Rb^P against 1.5 nM TMR-E2F1^TD or 7.5 nM TMR-E7^LxCxE; 25 mM Tris pH 8.0, 200 mM NaCl, 1 mM DTT, 0.1% Tween-20; apparent Kd
Conditions: both partners purified
No end group written: not given here. TMR = tetramethyl rhodamine dye
So I've got a bunch of binders here, and I need their Kd values.
Please respond with the number in nM and leave the unit unwritten.

Given the entry {TMR}-GEGIRDLFDCDFGDLTPLD (also called E2F^TD; source: synthetic peptide, bought: GenScript) [TMR-E2F1^TD, peptide of the E2F1 transactivation domain] , report its measured Kd.
73

Thanks! And DLYCYEQLN (also: TMR label, position not given here, source: synthetic peptide, bought: GenScript) [TMR-E7^LxCxE, LxCxE peptide of the E7 oncoprotein from HPV] ?
52
